Each item that follows carries a reported molar heat capacity at constant pressure.
Experiment: molar heat capacity at constant pressure
Conditions: 280.15 K; 101.33 kPa; Crystal; Small sample (50 mg) DSC
Number in J/K/mol, nothing else.

Guide cases for molar heat capacity at constant pressure, answers given:
compound | unit.annotation | molar heat capacity at constant pressure
O[C@H]1[C@H](O)[C@@H](O)[C@H](O)[C@@H](O)[C@H]1O [cis-1,2,3,5-trans-4,6-cyclohexanehexol] | J/K/mol | 203.91
OC[C@@H](O)[C@H](O)[C@@H](O)CO [xylitol] | J/K/mol | 195.98
OC[C@@H](O)C(O)[C@H](O)CO [D-arabitol] | J/K/mol | 187.87

Which molar heat capacity at constant pressure value is on record for OC[C@H](O)C(O)[C@@H](O)CO [L-(-)-arabitol] ?
195.16

Name the recorded molar heat capacity at constant pressure for OC[C@@H](O)[C@@H](O)CO [meso-1,2,3,4-butanetetrol] .
154.62

Would you mind telling me what molar heat capacity at constant pressure value was observed for OC[C@@H](O)[C@@H](O)[C@H](O)[C@H](O)CO [D-mannitol] ?
216.75

Every entry's value here was drawn from the NIST ThermoML archive (doi:10.1016/j.jct.2017.08.004).
